- measured target: Isocitrate dehydrogenase [NADP], mitochondrial (Homo sapiens, UniProt P48735, R140Q)
- Sequence (P48735 40-452 R140Q limits assumed): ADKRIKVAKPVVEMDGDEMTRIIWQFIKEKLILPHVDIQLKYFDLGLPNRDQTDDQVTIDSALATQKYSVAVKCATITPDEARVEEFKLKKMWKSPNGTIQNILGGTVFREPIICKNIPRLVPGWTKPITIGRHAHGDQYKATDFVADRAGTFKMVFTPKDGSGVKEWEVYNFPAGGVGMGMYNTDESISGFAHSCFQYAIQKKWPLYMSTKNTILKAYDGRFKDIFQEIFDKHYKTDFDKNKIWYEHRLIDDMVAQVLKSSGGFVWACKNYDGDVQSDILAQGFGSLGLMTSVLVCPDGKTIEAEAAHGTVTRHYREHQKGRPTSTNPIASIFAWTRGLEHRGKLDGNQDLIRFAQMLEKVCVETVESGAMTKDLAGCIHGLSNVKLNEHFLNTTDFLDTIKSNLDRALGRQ
- assay text: Inhibition of IDH2 R140Q mutant (unknown origin)
measurement kind: IC50 (µM)

I. COc1ccc2nc(Nc3cc(S(=O)(=O)NC4CC4)ccc3-c3ccsc3)[nH]c2c1
II. O=S(=O)(NC1CC1)c1ccc(-c2ccsc2)c(Nc2nc3ccc(F)c(Cl)c3[nH]2)c1
III. O=S(=O)(NC1CC1)c1ccc(-c2ccsc2)c(Nc2nc3ccc(Br)c(Br)c3[nH]2)c1
Problem: Give the ascending ranking of the items by reported IC50. Write the labels, ordered according to the request.
Result: III, II, I
